- test: Toxicity in animal models
- measurement conditions: rat, in vivo; laboratory rats; read-out: dose required before a toxic level is reached
measurement name: NOAEL

# query: NOAEL of entry CCOC(=O)CCCOC(C)=O [EAB, ethyl 4-acetoxybutanoate]
≥ 3000 mg/kg
